Assay procedure: yeast display, Sf9 membrane polyspecificity reagent, FACS + sequencing; frameworks hold sequencing errors
Measurement kind: polyreactivity (PSR sort gate)

Previously resolved entries follow.
{"columns": ["Chain sequence", "Measurement kind", "Measured result"],
 "data": [
  ["QVQLVESGGGLVQAGRSLRLSCAASGLTFGQYAMGWYRQAPGIERELVAAMNWSGDGTYYADSVKGRFTISRDNAKNTVYLQMKSLKPEDTAVYYCNAGGRRYYYIGYDYWGQGTQLTVSS", "polyreactivity (PSR sort gate)", "low polyreactivity"],
  ["QVQLVESGGCLVQAGGSLRLSCAASGRTIRENVMGWYIQAPGKERELVAAITGNDGTTYYADSVKGRFTISRDNAKNTVNLQMNSLKPEDTAVYYCASERGDSAYRKYDYWGQGTQVTVSS", "polyreactivity (PSR sort gate)", "low polyreactivity"],
  ["QVQLVESGGGLVQAGGSLRLSCAPSGNIFYINTMGWYRPAPGKERELVAAIDASDGSTYYADSVKGRFTISRDNAKNTVYLQMNSLKPEDTAVYYCATRRGYDSVYYLYTLWYYYWGQGTQVTVSS", "polyreactivity (PSR sort gate)", "low polyreactivity"],
  ["QVQLVESGGGLVQAGGSLRLSCAAYGSTFRYYTMGWYRQAPGKERELVAAISGSGGITYYADSLKGRFTISRDNAKNTVYLQMNSLKPEDTAVYYCAAESRYYPYWGQSVQYDYWGQGTQVTVSS", "polyreactivity (PSR sort gate)", "high polyreactivity"]
]}

stdin: Check the records and state polyreactivity (PSR sort gate) for "QVQLVESGGGLVQAGGSLRLSCAASGSTFTFNAMAWYRQAPGKEREFVAAITASGGRTYYADSVKGRFTISRDNAKNTVYLQMNSLKPEDTAVYYCNASQWPSRFDYWGQGTQVTVSS"
stdout: low polyreactivity

stdin: Check the records and state polyreactivity (PSR sort gate) for "HVQLQESGGGLVQAGGSLRLSCAASGNISYSRNMGWYRQAPGKERELVAAIDRGAITYYADSVKGRFTISRDNAKNTVYLQIYSLKPEDTAVYYCAAEDHDRWDHLYWGQGTQVTVSS"
stdout: high polyreactivity

stdin: Check the records and state polyreactivity (PSR sort gate) for "QVQLVESGGGLVQAGGSLRLSCAASGRIFRNYAMGWYRQATGKERELVAAISTRSGSTYYADSVKGRSTISRDNAKNTVYLQMNSLKPEDTAVYYCNKVSVGRYYALYYWGQGTQVTVAS"
stdout: high polyreactivity

stdin: Check the records and state polyreactivity (PSR sort gate) for "QVQHVESGGGLVQAGGSLRLSCAASGSISPQNVMGWYRQAPGKERELVAAITGGGYTNYADSVKGRFTISRDNANNTVYLQMNSLKPEDTAVYYCNADYFQDRLDYWGQGTQVTVSS"
stdout: low polyreactivity
